Measured values drawn from PubChem BioAssay AID504524 for this set.

Target: Apelin receptor (Homo sapiens) (UniProt P35414)
Sequence (P35414 whole entry, looked up): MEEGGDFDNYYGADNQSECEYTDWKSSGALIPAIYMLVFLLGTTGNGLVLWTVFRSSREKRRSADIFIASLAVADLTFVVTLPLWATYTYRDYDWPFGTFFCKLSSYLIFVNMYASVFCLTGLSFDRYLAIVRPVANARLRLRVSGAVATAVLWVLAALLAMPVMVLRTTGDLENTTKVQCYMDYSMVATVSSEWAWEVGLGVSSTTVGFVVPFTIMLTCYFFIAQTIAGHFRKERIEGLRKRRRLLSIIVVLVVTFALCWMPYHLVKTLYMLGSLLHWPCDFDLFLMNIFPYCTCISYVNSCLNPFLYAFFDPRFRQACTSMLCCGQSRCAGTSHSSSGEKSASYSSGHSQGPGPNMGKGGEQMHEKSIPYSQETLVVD
Experiment: apelin receptor activation by small molecules – cell-based, CHO-K1 AGTRL-1, PathHunter luminescence, set 5, SAR follow-up (AID 504524)
Details: CHO-K1 AGTRL-1 PathHunter beta-arrestin
Activity calls are given as the source filed them.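 Rule for the calls: active = mean EC50 below 10 µM; inactive = the rest.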
Entry note: the call must match one of TRUE for active, FALSE for inactive

I would be grateful if you could indicate the recorded call for Cc1cc(N=O)c(C(C)C)cc1O .
FALSE

I would be grateful if you could indicate the recorded call for CC1=CC(=O)C(C(C)C)=C/C1=N/OS(=O)(=O)c1cccc(Br)c1 .
TRUE

I would be grateful if you could indicate the recorded call for CC1=CC(=O)C(C(C)C)=C/C1=N/OS(=O)(=O)c1cccc(C)c1 .
TRUE

I would be grateful if you could indicate the recorded call for CC1=CC(=O)C(C2CCCCC2)=C/C1=N/OS(=O)(=O)c1cccc(Br)c1 .
TRUE

I would be grateful if you could indicate the recorded call for N#Cc1ccc(S(=O)(=O)ON=C2C=CC(=O)C(c3ccccc3)=C2)cc1 .
FALSE

New cases:
I would be grateful if you could indicate the recorded call for CC1=CC(=O)C(C(C)C)=C/C1=N\OS(=O)(=O)c1ccccc1Cl .
TRUE

---

Target: Apelin receptor (Homo sapiens) (UniProt P35414)
Test: apelin receptor activation by small molecules – cell-based, CHO-K1 AGTRL-1, PathHunter luminescence, set 5, SAR follow-up (AID 504524)
Settings: CHO-K1 AGTRL-1 PathHunter beta-arrestin
Calls of active or inactive are those of the source.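 Rule for the calls: active = mean EC50 below 10 µM; inactive = the rest.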
Entry note: the call must match one of active, inactive

# count of solved cases: 3
I would be grateful if you could indicate the recorded call for CC1=CC(=O)C(C(C)C)=C/C1=N\OS(=O)(=O)c1cn(C)cn1 .
inactive

I would be grateful if you could indicate the recorded call for CC1=CC(=O)C(C(C)(C)C)=C/C1=N/OS(=O)(=O)c1cccc(C)c1 .
active

I would be grateful if you could indicate the recorded call for CC(C)C1=CC(=NOS(=O)(=O)c2ccccc2)C=CC1=O .
active

New cases:
I would be grateful if you could indicate the recorded call for O=C1C=CC(=NOS(=O)(=O)c2ccccc2)C=C1c1ccccc1 .
inactive

I would be grateful if you could indicate the recorded call for CC1=CC(=O)C(C(C)C)=C/C1=N\OS(=O)(=O)c1c(Cl)cccc1Cl .
active

I would be grateful if you could indicate the recorded call for CC1=CC(=O)C(C2CCCCC2)=C/C1=N/OS(=O)(=O)c1cccc(C#N)c1 .
active

I would be grateful if you could indicate the recorded call for CC1=CC(=O)C(C(C)C)=C/C1=N\OS(=O)(=O)c1cccc(Cl)c1 .
active

I would be grateful if you could indicate the recorded call for CC1=CC(=O)C(C(C)(C)C)=C/C1=N\OS(=O)(=O)c1cn(C)cn1 .
active

I would be grateful if you could indicate the recorded call for Cc1cc(O)c(C(C)(C)C)cc1N=O .
inactive

I would be grateful if you could indicate the recorded call for CC1=CC(=O)C(C(C)(C)C)=C/C1=N\OS(=O)(=O)c1ccccc1Cl .
active

---

Biological target: Apelin receptor (Homo sapiens)
Assay: apelin receptor activation by small molecules – cell-based, CHO-K1 AGTRL-1, PathHunter luminescence, set 5, SAR follow-up (AID 504524)
Conditions: CHO-K1 AGTRL-1 PathHunter beta-arrestin
The source made the active and inactive calls.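 How the source made its calls: active means mean EC50 below 10 µM; inactive means the rest.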
Entry note: the call must match one of active, inactive

# count of solved cases: 5
I would be grateful if you could indicate the recorded call for CC1=CC(=O)C(C2CCCCC2)=C/C1=N\OS(=O)(=O)c1cccc(Cl)c1 .
active

I would be grateful if you could indicate the recorded call for COc1cccc(S(=O)(=O)O/N=C2\C=C(C(C)C)C(=O)C=C2C)c1 .
active

I would be grateful if you could indicate the recorded call for COc1cccc(S(=O)(=O)O/N=C2\C=C(C(C)(C)C)C(=O)C=C2C)c1 .
active

I would be grateful if you could indicate the recorded call for CC1=CC(=O)C(C(C)(C)C)=C/C1=N\OS(=O)(=O)c1cccc(Cl)c1 .
active

I would be grateful if you could indicate the recorded call for CC1=CC(=O)C(C2CCCCC2)=C/C1=N/OS(=O)(=O)c1cccc(C)c1 .
active

New cases:
I would be grateful if you could indicate the recorded call for CC1=CC(=O)C(C(C)(C)C)=C/C1=N\OS(=O)(=O)c1c(Cl)cccc1Cl .
active

I would be grateful if you could indicate the recorded call for CC1=CC(=O)C(C2CCCCC2)=C/C1=N\OS(=O)(=O)c1c(Cl)cccc1Cl .
active

I would be grateful if you could indicate the recorded call for CC1=CC(=O)C(C2CCCCC2)=C/C1=N\OS(=O)(=O)c1ccccc1Cl .
active

I would be grateful if you could indicate the recorded call for CC1=CC(=O)C(C(C)(C)C)=C/C1=N/OS(=O)(=O)c1cccc(Br)c1 .
inactive

I would be grateful if you could indicate the recorded call for CC1=CC(=O)C(C(C)C)=C/C1=N/OS(=O)(=O)c1cccc(C#N)c1 .
active
